Note to self: these compounds have Ki reported for the protein given by its sequence in various publications.
Target protein (sequence): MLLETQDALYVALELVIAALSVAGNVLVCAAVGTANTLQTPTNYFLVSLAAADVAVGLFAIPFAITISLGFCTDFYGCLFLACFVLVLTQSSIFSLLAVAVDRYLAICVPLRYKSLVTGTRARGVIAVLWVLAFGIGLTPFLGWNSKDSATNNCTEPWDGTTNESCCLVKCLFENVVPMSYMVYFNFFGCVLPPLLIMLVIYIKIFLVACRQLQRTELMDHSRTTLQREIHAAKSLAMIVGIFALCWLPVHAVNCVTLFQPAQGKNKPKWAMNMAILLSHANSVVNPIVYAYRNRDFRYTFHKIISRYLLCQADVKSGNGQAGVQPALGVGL
Result type: Ki (nM)

INSERT INTO results (compound, result_type, comparative_sign, data_value) VALUES
  ('CCCn1c(=O)c2[nH]c(-c3ccc(S(=O)(=O)Oc4cccc([N+](=O)[O-])c4)cc3)nc2n(CCC)c1=O', 'Ki', '=', 43),
  ('CCCn1c(=O)c2[nH]c(-c3ccc(OC)cc3)c(O)c2n(CCC)c1=O', 'Ki', '=', 24),
  ('O=C(Nc1ccc(-c2ccncc2)c(-c2ccco2)n1)C1CC1', 'Ki', '=', 1),
  ('CCCn1c(=O)[nH]c2[nH]c(-c3ccc(/C=C/C(=O)O)cc3)nc2c1=O', 'Ki', '=', 14.5),
  ('CC1=C(C(=O)OC(C)C)C(c2ccc[nH]2)n2c(nc3ccccc32)N1 (racemic)', 'Ki', '=', 31.3),
  ('COc1ccc(C(=O)Nc2nc(-c3ccccc3)c(C(=O)c3ccc(Cl)cc3)s2)cc1', 'Ki', '>', 100),
  ('Cn1cc(Nc2ncc(-c3ccncn3)c(-c3ccco3)n2)ccc1=O', 'Ki', '=', 28),
  ('CCCCn1c(=O)[nH]c2nc(-c3ccc(S(=O)(=O)Oc4cccc([N+](=O)[O-])c4)cc3)[nH]c2c1=O', 'Ki', '=', 23),
  ('O=c1[nH]c2nc(-c3cnn(Cc4cc(-c5ccc(C(F)(F)F)cc5)on4)c3)[nH]c2c(=O)n1CC1CC1', 'Ki', '=', 15);

---

Target chain: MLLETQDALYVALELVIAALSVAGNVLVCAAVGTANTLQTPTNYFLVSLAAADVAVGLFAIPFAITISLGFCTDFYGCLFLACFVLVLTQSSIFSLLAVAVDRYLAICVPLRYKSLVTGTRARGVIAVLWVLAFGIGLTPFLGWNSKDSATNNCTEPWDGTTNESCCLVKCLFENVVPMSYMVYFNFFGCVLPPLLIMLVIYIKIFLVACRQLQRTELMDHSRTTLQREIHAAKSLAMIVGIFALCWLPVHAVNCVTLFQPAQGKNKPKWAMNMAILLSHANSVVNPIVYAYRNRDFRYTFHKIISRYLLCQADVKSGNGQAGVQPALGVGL
Record: compiled Ki on the protein given by its sequence from multiple reports.
Field: label. Allowed values: y (Ki < 20 nM) or n (Ki >= 20 nM).

INSERT INTO results (smiles_input, assigned_class) VALUES
  ('CCCn1c(=O)[nH]c2nc(-c3ccc(Br)cc3)[nH]c2c1=O', 'y'),
  ('CCCn1c(=O)c2nc(-c3cnn(Cc4c(F)cc(F)cc4F)c3)[nH]c2n(CCC)c1=O', 'n'),
  ('CC(=O)OCCn1c(=O)c2c(ncn2C)n(C)c1=O', 'n'),
  ('CCCn1c(=O)c2[nH]c(-c3ccc(OCC(=O)Nc4ccc(O)cc4)cc3)cc2n(CCC)c1=O', 'n');

---

Below, Ki values reported for the protein given by its sequence across several publications.
Target protein (sequence): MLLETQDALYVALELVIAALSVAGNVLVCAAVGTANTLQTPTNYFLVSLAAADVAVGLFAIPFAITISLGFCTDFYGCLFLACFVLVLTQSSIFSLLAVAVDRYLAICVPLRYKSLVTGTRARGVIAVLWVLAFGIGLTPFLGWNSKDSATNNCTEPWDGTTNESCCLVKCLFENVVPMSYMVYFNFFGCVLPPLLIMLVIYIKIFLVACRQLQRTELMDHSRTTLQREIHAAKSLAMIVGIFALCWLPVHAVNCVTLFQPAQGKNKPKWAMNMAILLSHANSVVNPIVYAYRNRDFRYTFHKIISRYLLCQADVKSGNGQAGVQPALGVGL
Result type: Ki (nM)

INSERT INTO results (compound, tgt, result_type, comparative_sign, data_value) VALUES
  ('CCn1c(=O)c2[nH]c(-c3ccc(OCC(=O)Nc4nc5ccccc5[nH]4)cc3)nc2n(CCCOC)c1=O', 'the protein given by its sequence', 'Ki', '=', 93.3),
  ('CC1=C(C(=O)OC(C)C)C(c2ccco2)NC(=S)N1 (racemic)', 'the protein given by its sequence', 'Ki', '=', 10.2),
  ('O=C(Nc1nc(-c2ccccc2)c(C(=O)c2ccc(F)cc2F)s1)c1ccccc1', 'the protein given by its sequence', 'Ki', '>', 100),
  ('CCCn1c(=O)c2nc(-c3cnn(Cc4ccc(Cl)cc4)c3)[nH]c2n(CCC)c1=O', 'the protein given by its sequence', 'Ki', '=', 18),
  ('CC1=C(C(=O)OC(C)C)C(c2cccs2)NC(S)=N1 (racemic)', 'the protein given by its sequence', 'Ki', '=', 1570),
  ('CCCCCCn1c(=O)c2nc[nH]c2n(CCCCCC)c1=O', 'the protein given by its sequence', 'Ki', '=', 7580),
  ('CCCn1c(=O)c2[nH]c(-c3ccc(OC(C)(C)C(=O)Nc4ccccc4)cc3)cc2n(CCC)c1=O', 'the protein given by its sequence', 'Ki', '=', 7.94),
  ('CCCn1c(=O)c2[nH]c(-c3ccc(OCC(=O)Nc4ccc(OC)nc4)cc3)cc2n(C)c1=O', 'the protein given by its sequence', 'Ki', '=', 3.16),
  ('Nc1nc(-c2ccco2)c2cnn(Cc3cccc(OCCCCCCC(=O)NO)n3)c2n1', 'the protein given by its sequence', 'Ki', '=', 2500),
  ('Cn1c(=O)c2c(ncn2CCCCCl)n(C)c1=O', 'the protein given by its sequence', 'Ki', '=', 15000),
  ('O=C(Cc1cccc2ccccc12)Nc1nc2nn(CCc3ccccc3)cc2c2nc(-c3ccco3)nn12', 'the protein given by its sequence', 'Ki', '=', 30),
  ('COc1cccc(-c2cc(NC(C)=O)nc(-c3cccc(OC)c3OC)n2)c1OC', 'the protein given by its sequence', 'Ki', '=', 494),
  ('Cn1c(=O)c2c(ncn2Cc2ccccc2)n(C)c1=O', 'the protein given by its sequence', 'Ki', '=', 19400),
  ('CCCn1c(=O)c2nc(-c3cnn(Cc4noc(-c5ccc(OC)cc5)n4)c3)[nH]c2n(CCC)c1=O', 'the protein given by its sequence', 'Ki', '=', 123),
  ('Cc1ccc(C(=O)c2sc(NC(=O)c3ccco3)nc2-c2ccccc2)cc1', 'the protein given by its sequence', 'Ki', '>', 100),
  ('CCCn1c(=O)c2[nH]c(-c3ccc(OCC(=O)Nc4ccccc4)cc3)nc2n(CCC)c1=O', 'the protein given by its sequence', 'Ki', '=', 1.51),
  ('CCCCn1c(=O)[nH]c(=O)c2[nH]c(-c3cnn(Cc4ccccc4)c3)nc21', 'the protein given by its sequence', 'Ki', '>', 6000),
  ('CCCn1c(=O)c2[nH]c(-c3ccc(OCC(=O)Nc4ccccc4F)cc3)c(Cl)c2n(CCC)c1=O', 'the protein given by its sequence', 'Ki', '=', 141),
  ('CCCn1c(=O)c2[nH]c(-c3ccc(OCC(=O)Nc4ccc(Br)cc4)cc3)c(O)c2n(CCC)c1=O', 'the protein given by its sequence', 'Ki', '=', 1),
  ('CCCn1c(=O)c2[nH]c(-c3cc(CC)n(CC(=O)Nc4ccc(Cl)cc4)n3)nc2n(CCC)c1=O', 'the protein given by its sequence', 'Ki', '>', 1000);

---

Field: Ki. System: Adenosine receptor A2b (Homo sapiens, UniProt P29275). Provenance: assorted publications.
# if measured Ki < 70 nM: label 1  # else: label 0

INSERT INTO measurements (molecule, assigned_class) VALUES
  ('Cn1c(=O)[nH]c2nc(-c3ccco3)c(-c3ccncn3)cc21', 'label 1'),
  ('CC1=C(C(=O)OC(C)C)C(c2ccsc2)NC(=O)N1C (racemic)', 'label 0'),
  ('COc1cccc2cc(C(=O)NCCCN3CCN(CCCNC(=O)c4cc5cccc(OC)c5oc4=N)CC3)c(=N)oc12', 'label 0'),
  ('CCCn1c(=O)c2[nH]c(-c3ccc(OCC(=O)Nc4ccccc4)cc3)cc2n(C)c1=O', 'label 1'),
  ('CCCn1c(=O)c2nc([C@]34CC[C@](C(=O)NCC(=O)OC)(CC3)CC4)[nH]c2n(CCC)c1=O', 'label 0'),
  ('CCCn1c(=O)c2nc(-c3cnn(-c4ccccc4)c3C(F)(F)F)[nH]c2n(CCC)c1=O', 'label 0'),
  ('O=c1[nH]c2nc(-c3cnn(Cc4noc(-c5ccc(C(F)(F)F)cc5)n4)c3)[nH]c2c(=O)n1CC1CC1', 'label 1'),
  ('Nc1nc(C(=O)NCc2ccccc2F)cc(-c2ccco2)n1', 'label 1'),
  ('CCCn1c(=O)[nH]c2nc[nH]c2c1=O', 'label 0');
